Recorded activation, one value per entry.
TESTED SYSTEM: Cellular tumor antigen p53 (Homo sapiens) (UniProt P04637)
Sequence (P04637 whole entry, looked up): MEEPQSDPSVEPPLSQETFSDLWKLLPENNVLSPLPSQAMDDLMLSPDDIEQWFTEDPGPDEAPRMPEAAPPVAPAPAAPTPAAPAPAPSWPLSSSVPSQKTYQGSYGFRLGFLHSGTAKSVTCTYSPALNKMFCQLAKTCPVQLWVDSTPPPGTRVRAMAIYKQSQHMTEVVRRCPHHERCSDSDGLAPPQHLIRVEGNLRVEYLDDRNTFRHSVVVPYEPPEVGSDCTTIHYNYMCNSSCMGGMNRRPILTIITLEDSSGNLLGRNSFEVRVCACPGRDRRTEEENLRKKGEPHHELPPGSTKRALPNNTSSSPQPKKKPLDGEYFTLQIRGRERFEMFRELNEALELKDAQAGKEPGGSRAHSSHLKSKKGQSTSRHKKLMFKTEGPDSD
ASSAY OVERVIEW: Primary qHTS for small molecule compounds that upregulate eGFP-tagged delta133p53alpha (in N-terminal) cells. (AID 2060322);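 note: cells pre-induced with doxycycline then dosed without doxycycline; 0% = DMSO vehicle and 100% = reference activator; nearly all actives have a fitted effect of over 75% in size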
ASSAY SETUP: NCI-H358 eGFP-delta133p53alpha fluorescence, 24 h; hits give high values
Results filed as inconclusive are left out.
Return type: number; implicit unit %.

Recorded activation (compound Cc1cccc(-c2[nH]ncc2-c2ccnc3ccccc23)n1 ): 8.93

Lab book: activation of CCC[C@H](N[C@@H](C)C(=O)N1[C@H](C(=O)O)C[C@@H]2CCCC[C@@H]21)C(=O)OCC noted as -15.3

For COC(=O)C(c1ccccc1Cl)N1CCc2sccc2C1 (stereo not given) the compound record lists activation as 10.7

The compound listed as COc1ccc(C2(CNC(=O)[C@](C)(Cc3c[nH]c4ccccc34)NC(=O)Nc3ccc([N+](=O)[O-])cc3)CCCCC2)nc1 shows activation equal to 12.9

# activation (compound: NC(=O)C1CCCc2c1[nH]c1ccc(Cl)cc21 (stereo not given) ) is 10.6

---

TESTED SYSTEM: Cellular tumor antigen p53 (Homo sapiens) (UniProt P04637)
ASSAY OVERVIEW: Primary qHTS for small molecule compounds that upregulate eGFP-tagged delta133p53alpha (in N-terminal) cells. (AID 2060322);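 note: cells pre-induced with doxycycline then dosed without doxycycline; 0% = DMSO vehicle and 100% = reference activator; nearly all actives have a fitted effect of over 75% in size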
ASSAY SETUP: NCI-H358 eGFP-delta133p53alpha fluorescence, 24 h; hits give high values
Results filed as inconclusive are left out. Active and inactive are the calls of the source. Calls follow the shape of the dose curve; as a rule, active = well fitted activation curve with a large enough effect; inconclusive = small, poorly fitted or top-dose-only effect; inactive = no such curve, though single readings can be large or run the other way.
READOUT: activation

activation recorded for this molecule, CC(C)(O)C1CCC2(C)C3C(O)C4C(C13)C42CO (stereo not drawn) , is 3.57% (inactive)

Documented activation of CNC(=O)CN(CCN(CCN(CC(=O)[O-])CC(=O)NC)CC(=O)[O-])CC(=O)[O-].O.[Gd+3] : 0.837% (inactive)

Sure, the documented activation for Nc1nc2c(ncn2[C@@H]2O[C@H](CO)[C@@H](O)[C@@H]2O)c(=O)[nH]1 is -6.66% (inactive)

Value of activation reported for the molecule Cc1ccc(O)c(C(CCN(C(C)C)C(C)C)c2ccccc2)c1 (stereo not drawn) is 47.6% (inactive)

Entry N=C(N)c1ccc(OCCCOc2ccc(C(=N)N)cc2)cc1 ; activation = -15.9% (inactive)

Further cases:
Given item CC(=O)O[C@@H](C[C@@H]1C=C(C)C(=O)O1)[C@H](C)[C@H]1CCC2[C@@]3(C)CC[C@H](O[C@@H]4O[C@H](CO)[C@@H](O)[C@H](O)[C@H]4O[C@@H]4O[C@@H](C)[C@H](O)[C@@H](O)[C@H]4O)C(C)(C)C3CC[C@@]2(C)[C@@]12COC(=O)C2 (stereo partly drawn) , the value recorded as its activation is 1.79% (inactive)

Documented activation of Nc1nc(Cl)nc2c1ncn2C1OC(CO)C(O)C1F (stereo not drawn) : 0% (inactive)

Entry under test: O=C(C=Cc1ccc(CN(CCO)CCc2c[nH]c3ccccc23)cc1)NO . Its activation was 23.4% (inactive)

---

TESTED SYSTEM: Cellular tumor antigen p53 (Homo sapiens)
ASSAY OVERVIEW: Primary qHTS for small molecule compounds that upregulate eGFP-tagged delta133p53alpha (in N-terminal) cells. (AID 2060322);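 note: cells pre-induced with doxycycline then dosed without doxycycline; 0% = DMSO vehicle and 100% = reference activator; nearly all actives have a fitted effect of over 75% in size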
ASSAY SETUP: NCI-H358 eGFP-delta133p53alpha fluorescence, 24 h; hits give high values
Excerpt: Assay Development and Screening Technology National Center for Advancing Translational Sciences (NCATS), National Institute of Health (NIH), Rockville, Maryland Cellular senescence (CS) is one of the hallmarks of aging and age-related diseases. […] Here we report the development and validation of a cell-based quantitative high throughput screening (qHTS) assay in 1,536-well format. […]
Inconclusive results are not listed.
Recorded activation, one value per entry.
Give the value, in units of %, as a plain number.

Look over these answered cases.
For record Cc1cccc(C)c1NC(=O)CC12CCCN1CCC2 the listed activation is 5.86

# compound CC(N[C@H]1CCCC[C@H]1NC(=O)c1ccc(Cl)cc1)c1cccc2ccccc12 (stereo partly drawn) ; its activation = 3.01

The compound identified as CC(C)(O)c1cc2nc(-c3cnc(N)nc3)nc(N3CCOCC3)c2s1 registered its activation at 18.8

More entries:
Record CCC(=O)O[C@H]1[C@H](O[C@@H]2[C@@H](C)[C@H](O[C@H]3C[C@@](C)(OC)[C@@H](O)[C@H](C)O3)[C@@H](C)C(=O)O[C@H](CC)[C@@](C)(O)[C@H](O)[C@@H](C)C(=O)[C@H](C)C[C@@]2(C)O)O[C@H](C)C[C@@H]1N(C)C , field activation: 0.837

response.value for CCNC(=O)[C@H]1O[C@@H](n2cnc3c(N)nc(NCCc4ccc(CCC(=O)O)cc4)nc32)[C@H](O)[C@H]1O (field: activation) = 29.2

---

TESTED SYSTEM: Cellular tumor antigen p53 (Homo sapiens)
ASSAY OVERVIEW: Primary qHTS for small molecule compounds that upregulate eGFP-tagged delta133p53alpha (in N-terminal) cells. (AID 2060322);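 note: cells pre-induced with doxycycline then dosed without doxycycline; 0% = DMSO vehicle and 100% = reference activator; nearly all actives have a fitted effect of over 75% in size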
ASSAY SETUP: NCI-H358 eGFP-delta133p53alpha fluorescence, 24 h; hits give high values
Description: Assay Development and Screening Technology National Center for Advancing Translational Sciences (NCATS), National Institute of Health (NIH), Rockville, Maryland Cellular senescence (CS) is one of the hallmarks of aging and age-related diseases. […] Here we report the development and validation of a cell-based quantitative high throughput screening (qHTS) assay in 1,536-well format. […]
Inconclusive results are not listed.
READOUT: activation (%)
Give the value in % but do not write % after it.

Documented activation of C=CC1(C)CC(OC(=O)C(=C)C(O)COC(C)=O)C(C(=C)C(=O)OC)C(O)C1C(=C)CO (stereo not given) : -2.29

Others:
The recorded activation for entry COc1ccc(C(=O)n2c(C)c(Cc3cccc(O[C@@H](C)C(=O)O)c3)c3cc(OC(F)(F)F)ccc32)cc1 equals -3.82

The molecule O=C(Nc1cc2cc[nH]c2cn1)c1ccccc1 showed activation equal to -10

For record COc1ccnc2[nH]cc(C(=O)C(=O)N3CCN(C(=O)c4ccccc4)CC3C)c12 (stereo not given) the listed activation is -3

Reported activation of CC1(C)SCCN(S(=O)(=O)c2ccc(Oc3ccncc3)cc2)[C@H]1C(=O)NO : 20.3

---

ASSAY OVERVIEW: BET inhibitor-based combinations targeting novel dependencies in MECOM-rearranged (r) AML: HNT-34 cell line (AID 2202234); note: nearly all actives have a fitted effect of over 35% in size; note: potency is the fitted concentration of half-maximal effect
ASSAY SETUP: HNT-34 AML viability, CellTiter-Glo luminescence, 48 h; series mostly up to 46 µM
Records with an inconclusive call do not appear. The source made the active and inactive calls. Calls follow the shape of the dose curve; as a rule, active = well fitted inhibition curve with a large enough effect; inconclusive = small, poorly fitted or top-dose-only effect; inactive = no such curve, though single readings can be large or run the other way.
READOUT: Potency

Below, each entry is followed by its recorded Potency result.
Looking up C=CC(=O)Nc1cccc(Nc2nc(Nc3ccc(NC4CN(CCF)C4)cc3OC)ncc2C(F)(F)F)c1 , I found its Potency recorded as 3.32 µM (active)

The recorded Potency for CN1CCN(c2ccc(C(=O)Nc3n[nH]c4ccc(Cc5cc(F)cc(F)c5)cc34)c(NC3CCOCC3)c2)CC1 is 5.9 µM (active)

Value of measured Potency for the entry CCO[C@@H]1OC(=O)C[C@@H]1NC(=O)[C@@H]1CCCN1C(=O)[C@@H](NC(=O)c1ccc(N)c(Cl)c1)C(C)(C)C : inactive

Reported Potency ( O=C(O)C[C@H](O)C[C@H](O)/C=C/c1c(C2CC2)nc2ccccc2c1-c1ccc(F)cc1 ) = 2.95 µM (active)

GET /value?item= CC(C)C[C@H](NC(=O)[C@H](CCc1ccccc1)NC(=O)CN1CCOCC1)C(=O)N[C@@H](Cc1ccccc1)C(=O)N[C@@H](CC(C)C)C(=O)[C@@]1(C)CO1 &field=Potency returns 0.0235 µM (active)

The compound identified as CS(=O)(=O)Nc1ccc([N+](=O)[O-])cc1Oc1ccccc1 registered its Potency at inactive

Sure, the documented Potency for CNC(=O)c1cccc2cc(Oc3ccnc4cc(OCC5(N)CC5)c(OC)cc34)ccc12 is 16.6 µM (active)

// recorded Potency for COc1cc(C(=O)NC2CCN(C)CC2)c(F)cc1Nc1ncc2c(n1)N(C1CCCC1)CC(F)(F)C(=O)N2C : 0.105 µM (active)

More entries:
Query OC(c1cc(C(F)(F)F)nc2c(C(F)(F)F)cccc12)C1CCCCN1 (centres undefined) yields Potency of 23.5 µM (active)

Item: COC(=O)C[C@](O)(CCCC(C)(C)O)C(=O)O[C@@H]1C(OC)=C[C@]23CCCN2CCc2cc4c(cc2[C@H]13)OCO4 | Potency: 0.0417 µM (active)

According to the records, this compound Cn1c(=O)c2[nH]cnc2n(C)c1=O displays Potency of inactive

Entry under test: CCCS(=O)c1ccc2nc(NC(=O)OC)[nH]c2c1 (centres undefined) . Its Potency was 13.2 µM (active)

# compound O=P(O)(O)C(O)(Cc1cccnc1)P(=O)(O)O ; its Potency = inactive

Sure, the documented Potency for CC[C@@]1(O)C(=O)OCc2c1cc1n(c2=O)Cc2cc3c(CN(C)C)c(O)ccc3nc2-1 is 0.0083 µM (active)

Reported Potency ( Cc1cc2c(cc1CC(=O)c1sccc1S(=O)(=O)Nc1onc(C)c1Cl)OCO2 ) = inactive

Quick note, Potency for O=C1NC(O)CCN1[C@@H]1O[C@H](CO)[C@H](O)[C@H]1O (some centres undefined) landed at inactive
